Species: Homo sapiens
Test: To identify inhibition of the IFN signalling (Jak-Stat) pathway via expression of an eGFP reporter gene under the control of an IFN-stimulated response element (ISRE) containing MxA promoter.
Assay type: functional
Set-up: scale not given: direction of the effect not stated beside the values
Conditions: 30 µM
Property: Percent Effect; scope: individual molecules
Your answer is read as %, so omit the unit and give the number.

molecule	output-unit	Percent Effect
Cc1nc(Nc2nccs2)cc(C2CCCN2C2CCOCC2)n1 (stereo not given)	%	6.9
COC(C(=O)N1CCCN(Cc2cscn2)CC1)c1ccccc1 (stereo not given)	%	6.84
CCn1c(CN2CCC(O)(C(=O)OC)CC2)nc2c(F)cccc21	%	11.3
CCc1nc(NCCCn2cccn2)c2c(n1)c(C)nn2C	%	8.9
Cc1ccc(C(=O)N2CCCC(C(=O)N3CCCCC3)C2)c(O)c1 (stereo not given)	%	12.5

## Task Quick check: Percent Effect of CC(C)c1nc2n(n1)CC(NCc1nnc(-c3ccco3)o1)CC2 (stereo not given) ?
## Result -2.24

## Task Quick check: Percent Effect of CNc1cc(C2CCCN2Cc2ccccc2C(=O)O)ccn1 (stereo not given) ?
## Result 7.54

## Task Quick check: Percent Effect of `CCOc1cccc(C(=O)NCCC(=O)Nc2ccncc2)c1` ?
## Result 3.36

## Task Quick check: Percent Effect of CC(C)c1nc(C2CCCN(C(=O)CCCn3cncn3)C2)no1 (stereo not given) ?
## Result -60.1

## Task Quick check: Percent Effect of `O=C(Cc1cccs1)N1C[C@@H]2COC[C@]2(COc2cccnc2)C1` ?
## Result -12.3

## Task Quick check: Percent Effect of `CCN1C[C@H]2CCN(C(=O)NC3CCCC3)CC[C@H]2S1(=O)=O` ?
## Result 2.2

## Task Quick check: Percent Effect of `Cc1cnn(CCNCC(=O)NCCOc2ccccc2)c1` ?
## Result 25.5

## Task Quick check: Percent Effect of `NC(=O)CN1CCCN(C(=O)c2ccn(-c3ccccc3)n2)CC1` ?
## Result 13.7

## Task Quick check: Percent Effect of `COCC(=O)N1CCC2(CC1)COCCN2CCN(C)C` ?
## Result -11.3

## Task Quick check: Percent Effect of Cc1[nH]ncc1C(=O)N1CCCC(c2cc(C(F)(F)F)[nH]n2)C1 (stereo not given) ?
## Result 14.8

## Task Quick check: Percent Effect of `COc1ccc(C(=O)N(Cc2cnn(C)c2)C(C)C)cc1Br` ?
## Result -4.21

## Task Quick check: Percent Effect of `OC1(Cn2ccc3ncccc32)CCN(Cc2ccccn2)CC1` ?
## Result 34.1

## Task Quick check: Percent Effect of `O=C(NCc1cncc2c1CCN(Cc1cccc(F)c1)C2)C1CC1` ?
## Result 9.89

## Task Quick check: Percent Effect of `CC(C)C(=O)N1CCN(C(=O)c2cscn2)[C@H]2CS(=O)(=O)C[C@H]21` ?
## Result -3.92

## Task Quick check: Percent Effect of `NC(=O)CN1CCCN(C(=O)c2ccn(-c3cccc(F)c3)n2)CC1` ?
## Result -17.8

====

Biological target: Chromo domain-containing protein 1 (Saccharomyces cerevisiae (strain ATCC 204508 / S288c) (Baker's yeast))
Assay: ScCHD-1 Enzyme Inhibition Assay; also: in the data most compounds retested in dose-response had high values
Type: functional
Design: scale not given: direction of the effect not stated beside the values
Settings: 30 µM
experimental-readout: Percent Effect (%)
Your answer is read as %, so omit the unit and give the number.

Known results for compounds:
compound	Percent Effect / %
Cc1csc(N2CCN(C(=O)CCc3ccccn3)CC2)n1	-12.7
CCOc1ccc(CN(C)C(=O)NC(C)c2nncn2C)cc1 (centres undefined)	-0.989
CC(C)Oc1ccccc1C1CC(=O)Nc2c1cnn2C (centres undefined)	-0.488

## Task Quick check: Percent Effect of Cc1cc(CN2CCCC2c2noc(C3CC3)n2)c2ccccc2n1 (centres undefined) ?
## Result 12.8

## Task Quick check: Percent Effect of `O=C(NCCc1cccs1)[C@H]1CO[C@H]2CCNC[C@H]2C1` ?
## Result -2.47

## Task Quick check: Percent Effect of `NC(=O)COc1ccc(CNCc2ccc(F)c(F)c2)cc1` ?
## Result -2.75

## Task Quick check: Percent Effect of O=S(=O)(N(Cc1ccccn1)C1CC1)N1CCCC1c1ccco1 (centres undefined) ?
## Result -5.26

## Task Quick check: Percent Effect of O=C(c1cccnc1)N1CCc2ncnc(C3CCOC3)c2CC1 (centres undefined) ?
## Result 3.31

## Task Quick check: Percent Effect of CC(C)(C)c1nc(CN2CCCC2Cn2cccn2)no1 (centres undefined) ?
## Result -9.21

## Task Quick check: Percent Effect of Cc1nn(C)c(N(C)C)c1CNCC(O)COc1ccc(F)cc1 (centres undefined) ?
## Result -3.3

## Task Quick check: Percent Effect of CC(=O)N1CC(=O)N(c2cnn(C)c2)CC12CCN(Cc1ccoc1)C2 (centres undefined) ?
## Result -1.77

## Task Quick check: Percent Effect of `c1cc(CNCc2ccc3c(c2)CCO3)cc(N2CCOCC2)n1` ?
## Result -4.71

## Task Quick check: Percent Effect of CCCc1nc(CN2CCCC(Cn3cncn3)C2)no1 (centres undefined) ?
## Result -25.2

## Task Quick check: Percent Effect of CCOC(=O)NC(CNC(=O)c1ncccn1)CC(C)C (centres undefined) ?
## Result -6.28

## Task Quick check: Percent Effect of Cc1cc(CN2CCN(C(C)c3nc(C4CC4)no3)CC2)no1 (centres undefined) ?
## Result -25.2

## Task Quick check: Percent Effect of CCCN1CCN(C(=O)C(C)n2cc(Br)cn2)CC1 (centres undefined) ?
## Result -7.35

## Task Quick check: Percent Effect of CN(CC1(O)CCCN(c2ccccn2)C1)C(=O)Cc1ccsc1 (centres undefined) ?
## Result 3.9

## Task Quick check: Percent Effect of `CCOCCC(=O)N1CCCN(Cc2csc(CC)n2)CC1` ?
## Result -30.1

## Task Quick check: Percent Effect of `O=C(Nc1cnn(CCN2CCOCC2)c1)c1ccccn1` ?
## Result 0.887

## Task Quick check: Percent Effect of `CCN(CC)CCNC(=O)c1cc(C(C)C)nc(N2CCCC2)n1` ?
## Result 80.8

## Task Quick check: Percent Effect of `CC(C)(C)OC(=O)N1CCCC[C@H]1C(=O)NCc1nccs1` ?
## Result -4.5

All values here come from ChEMBL document CHEMBL3988442.
